# target_system: T1, human serum albumin (human, UniProt P02768 25-609)
# T1 construct: Negative control antigen of the screening ELISA; also called HSA
# T1 sequence (P02768 25-609 limits assumed): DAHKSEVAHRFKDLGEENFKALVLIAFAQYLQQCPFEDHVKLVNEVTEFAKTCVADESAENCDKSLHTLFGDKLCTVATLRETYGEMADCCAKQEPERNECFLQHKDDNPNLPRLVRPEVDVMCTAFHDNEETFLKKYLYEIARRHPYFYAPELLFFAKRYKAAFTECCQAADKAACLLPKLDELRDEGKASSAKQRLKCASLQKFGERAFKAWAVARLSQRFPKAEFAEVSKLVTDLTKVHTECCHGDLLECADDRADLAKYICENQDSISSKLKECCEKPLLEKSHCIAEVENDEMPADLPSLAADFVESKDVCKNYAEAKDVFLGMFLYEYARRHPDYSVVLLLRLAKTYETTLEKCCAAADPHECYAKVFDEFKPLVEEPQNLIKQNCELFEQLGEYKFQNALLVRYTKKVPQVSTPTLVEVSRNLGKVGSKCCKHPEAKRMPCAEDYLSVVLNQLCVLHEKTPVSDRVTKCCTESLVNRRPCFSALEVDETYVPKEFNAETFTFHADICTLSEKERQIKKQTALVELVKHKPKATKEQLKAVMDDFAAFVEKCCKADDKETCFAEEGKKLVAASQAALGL
# measurement_notes: ELISA, bacterial lysate on plate-bound antigen, luminescence
Measured ELISA HSA (RLU) values are reported for all entries that follow.
Output spec: scalar in RLU, unitless text.

query: Any idea what its ELISA HSA (RLU) is? The binder is ISOP120HR5P1D9 (designed binder, not shown: small tags and cut ends, FN3 domain (Centyrin); tested as E. coli lysate) LPAPKNLVVSRVTEDSARLSWTAPDAAFDSFDIYYRELDFQGEAIVLTVPGSERSYDLTGLKPGTEYLVIIYGVKGGSYSYTLSAIFTT
result: 400

query: Any idea what its ELISA HSA (RLU) is? The binder is ISOP120AR5P1C4 (designed binder, not shown: small tags and cut ends, FN3 domain (Centyrin); tested as E. coli lysate) LPAPKNLVVSRVTEDSARLSWAFQWHIFDSFLIQYQESEKVGEAIVLTVPGSERSYDLTGLKPGTEYTVSIYGVGQPYTVYDSNPLSAIFTT
result: 240

query: Any idea what its ELISA HSA (RLU) is? The binder is ISOP120ER5P1A11 (designed binder, not shown: small tags and cut ends, FN3 domain (Centyrin); tested as E. coli lysate) LPAPKNLVVSRVTEDSARLSWTAPDAAFDSFEIYYKELRAEGEAIVLTVPGSERSYDLTGLKPGTEYLVTIYGVKGGSVSIPLSAIFTT
result: 320
